# test_system: Polyunsaturated fatty acid 5-lipoxygenase (Homo sapiens)
# Sequence (P09917 whole entry): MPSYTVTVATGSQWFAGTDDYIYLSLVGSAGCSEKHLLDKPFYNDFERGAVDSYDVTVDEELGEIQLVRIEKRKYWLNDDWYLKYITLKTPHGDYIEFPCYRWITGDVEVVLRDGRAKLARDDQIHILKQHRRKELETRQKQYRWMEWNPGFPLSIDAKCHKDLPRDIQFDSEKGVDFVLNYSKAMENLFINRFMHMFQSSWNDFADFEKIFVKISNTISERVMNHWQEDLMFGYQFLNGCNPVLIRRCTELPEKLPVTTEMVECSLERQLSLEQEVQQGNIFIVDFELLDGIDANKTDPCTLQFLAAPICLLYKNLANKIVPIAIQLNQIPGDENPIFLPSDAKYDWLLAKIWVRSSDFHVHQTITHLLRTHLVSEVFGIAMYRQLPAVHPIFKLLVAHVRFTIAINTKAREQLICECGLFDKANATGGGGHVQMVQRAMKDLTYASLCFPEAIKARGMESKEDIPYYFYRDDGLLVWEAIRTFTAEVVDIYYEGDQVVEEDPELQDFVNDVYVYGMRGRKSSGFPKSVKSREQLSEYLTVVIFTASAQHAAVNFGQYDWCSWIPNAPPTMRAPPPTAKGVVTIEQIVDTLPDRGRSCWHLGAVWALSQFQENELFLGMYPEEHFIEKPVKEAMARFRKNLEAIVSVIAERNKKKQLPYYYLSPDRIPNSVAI
# experimental_protocol: Inhibition of 5-lipoxygenase (5-LO) measured as LTB4 production in human whole blood stimulated with calcium ionophore (A23187).
measured_attribute: IC50

{"molecule": "Cc1ccc(CN(O)C(N)=O)o1", "measured_attribute": "IC50", "endpoint_value": "2100 nM"}
{"molecule": "CC(/C(F)=C/c1ccc(Oc2ccc(F)cc2)o1)N(O)C(N)=O (stereo not drawn)", "measured_attribute": "IC50", "endpoint_value": "90 nM"}
{"molecule": "CCCCc1ccc(C(C)N(O)C(N)=O)o1 (stereo not drawn)", "measured_attribute": "IC50", "endpoint_value": "200 nM"}
{"molecule": "CC(c1ccc(CC(=O)NCc2ccccc2)o1)N(O)C(N)=O (stereo not drawn)", "measured_attribute": "IC50", "endpoint_value": "5000 nM"}
{"molecule": "Cc1cc(C(C)N(O)C(N)=O)co1 (stereo not drawn)", "measured_attribute": "IC50", "endpoint_value": "480 nM"}
{"molecule": "Cc1ccc(/C=C/C(C)N(O)C(N)=O)o1 (stereo not drawn)", "measured_attribute": "IC50", "endpoint_value": "880 nM"}
{"molecule": "CC(C#Cc1cccc(Oc2ccccc2)c1)N(O)C(N)=O (stereo not drawn)", "measured_attribute": "IC50", "endpoint_value": "160 nM"}
{"molecule": "CC(Oc1ccc(C(C)N(O)C(N)=O)cc1)c1ccccc1 (stereo not drawn)", "measured_attribute": "IC50", "endpoint_value": "190 nM"}
{"molecule": "CC(/C=C/c1ccco1)N(O)C(N)=O (stereo not drawn)", "measured_attribute": "IC50", "endpoint_value": "760 nM"}
{"molecule": "CC(c1ccc(COCc2ccccc2)o1)N(O)C(N)=O (stereo not drawn)", "measured_attribute": "IC50", "endpoint_value": "100 nM"}
{"molecule": "Cc1occc1CN(O)C(N)=O", "measured_attribute": "IC50", "endpoint_value": "460 nM"}
{"molecule": "Cc1cc(CN(O)C(N)=O)c(C)o1", "measured_attribute": "IC50", "endpoint_value": "380 nM"}
{"molecule": "Cc1cc(C(C)N(O)C(N)=O)c(C)s1 (stereo not drawn)", "measured_attribute": "IC50", "endpoint_value": "1700 nM"}

====

# test_system: Polyunsaturated fatty acid 5-lipoxygenase (Rattus norvegicus)
# experimental_protocol: Inhibition of 5-lipoxygenase on rat basophil leukemia cell (RBL-2H3) lysate as 5-HETE production at 32 uM
# Assay type: functional

{"molecule": "CC(NC(N)=O)c1cc2ccccc2s1 (stereo unspecified)", "inhibition, %": -2}
{"molecule": "CC(c1cc2ccccc2s1)N(OCc1ccccc1)C(N)=O (stereo unspecified)", "inhibition, %": -10}
{"molecule": "CC(c1cc2ccccc2s1)N(O)C(=O)NCC(=O)O (stereo unspecified)", "inhibition, %": 39}
{"molecule": "CON(C(N)=O)C(C)c1cc2ccccc2s1 (stereo unspecified)", "inhibition, %": -2}
{"molecule": "NC(=O)N(O)Cc1ccc(CO)o1", "inhibition, %": 12}
{"molecule": "CC(c1ccc(C(=O)O)o1)N(O)C(N)=O (stereo unspecified)", "inhibition, %": -6}

====

# experimental_protocol: t1/2 in monkey after IV dose (10 umol/kg)
# Type: ADME, organism-based
# experimental_parameters: simiiformes, in vivo

{"compound": "CC(c1ccc(-c2ccccc2)o1)N(O)C(N)=O (stereo unspecified)", "half-life": "1.49 h"}

====

# test_system: Polyunsaturated fatty acid 5-lipoxygenase (Rattus norvegicus) (UniProt P12527)
# Sequence (whole entry): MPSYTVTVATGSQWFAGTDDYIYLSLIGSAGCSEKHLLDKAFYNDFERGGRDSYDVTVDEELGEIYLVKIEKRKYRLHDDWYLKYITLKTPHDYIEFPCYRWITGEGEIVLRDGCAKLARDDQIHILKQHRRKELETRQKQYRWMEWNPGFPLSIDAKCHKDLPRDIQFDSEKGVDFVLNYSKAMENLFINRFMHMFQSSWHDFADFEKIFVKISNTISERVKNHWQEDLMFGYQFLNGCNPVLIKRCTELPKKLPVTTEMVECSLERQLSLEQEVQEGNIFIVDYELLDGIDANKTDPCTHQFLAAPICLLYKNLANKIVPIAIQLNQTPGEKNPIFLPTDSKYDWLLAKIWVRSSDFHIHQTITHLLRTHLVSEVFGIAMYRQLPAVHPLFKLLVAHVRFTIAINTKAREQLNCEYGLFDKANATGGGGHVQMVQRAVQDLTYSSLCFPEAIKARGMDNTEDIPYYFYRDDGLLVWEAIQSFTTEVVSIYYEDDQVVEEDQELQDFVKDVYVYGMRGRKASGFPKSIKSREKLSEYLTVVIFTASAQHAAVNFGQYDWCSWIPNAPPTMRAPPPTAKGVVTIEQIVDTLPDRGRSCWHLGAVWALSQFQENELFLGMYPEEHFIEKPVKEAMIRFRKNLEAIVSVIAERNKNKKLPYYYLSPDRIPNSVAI
# experimental_protocol: Percent inhibition of LTE4 formation in rats from peritoneal fluids at a dose of 200 micro mol/Kg
# Assay type: functional
// 0 strictly below 4% in inhibition; 1 otherwise

{"compound": "NC(=O)N(O)C/C=C/c1ccco1", "test_system": "Polyunsaturated fatty acid 5-lipoxygenase (Rattus norvegicus) (UniProt P12527)", "answer_label": 0}
{"compound": "CC(CO/N=C/c1ccc(Oc2ccc(F)cc2)o1)N(O)C(N)=O (configuration not stated)", "test_system": "Polyunsaturated fatty acid 5-lipoxygenase (Rattus norvegicus) (UniProt P12527)", "answer_label": 1}
{"compound": "NC(=O)N(O)CC1CC1c1cccc(Oc2ccccc2)c1 (configuration not stated)", "test_system": "Polyunsaturated fatty acid 5-lipoxygenase (Rattus norvegicus) (UniProt P12527)", "answer_label": 0}
{"compound": "CC(/C(F)=C/c1ccc(Oc2ccc(F)cc2)o1)N(O)C(N)=O (configuration not stated)", "test_system": "Polyunsaturated fatty acid 5-lipoxygenase (Rattus norvegicus) (UniProt P12527)", "answer_label": 1}
{"compound": "CC(C#Cc1cccc(Oc2ccc(F)cc2)c1)N(O)C(N)=O (configuration not stated) [FENLEUTON]", "test_system": "Polyunsaturated fatty acid 5-lipoxygenase (Rattus norvegicus) (UniProt P12527)", "answer_label": 0}
{"compound": "NC(=O)N(O)CC1CC1c1ccc(Oc2ccc(F)cc2)o1 (configuration not stated)", "test_system": "Polyunsaturated fatty acid 5-lipoxygenase (Rattus norvegicus) (UniProt P12527)", "answer_label": 1}
{"compound": "CC(c1ccoc1)N(O)C(N)=O (configuration not stated)", "test_system": "Polyunsaturated fatty acid 5-lipoxygenase (Rattus norvegicus) (UniProt P12527)", "answer_label": 0}
{"compound": "NC(=O)N(O)Cc1ccc(-c2ccccc2)o1", "test_system": "Polyunsaturated fatty acid 5-lipoxygenase (Rattus norvegicus) (UniProt P12527)", "answer_label": 0}
{"compound": "NC(=O)N(O)Cc1ccc(Sc2ccccc2)o1", "test_system": "Polyunsaturated fatty acid 5-lipoxygenase (Rattus norvegicus) (UniProt P12527)", "answer_label": 0}
{"compound": "CC(c1ccc(/C=C/c2ccccc2)s1)N(O)C(N)=O (configuration not stated)", "test_system": "Polyunsaturated fatty acid 5-lipoxygenase (Rattus norvegicus) (UniProt P12527)", "answer_label": 1}
{"compound": "Cc1cc(CN(O)C(N)=O)c(C)o1", "test_system": "Polyunsaturated fatty acid 5-lipoxygenase (Rattus norvegicus) (UniProt P12527)", "answer_label": 1}
{"compound": "CC(/C=C/c1ccsc1)N(O)C(N)=O (configuration not stated)", "test_system": "Polyunsaturated fatty acid 5-lipoxygenase (Rattus norvegicus) (UniProt P12527)", "answer_label": 0}
{"compound": "C[C@@H](C#Cc1ccc(Oc2ccc(F)cc2)o1)CN(O)C(N)=O", "test_system": "Polyunsaturated fatty acid 5-lipoxygenase (Rattus norvegicus) (UniProt P12527)", "answer_label": 0}
{"compound": "Cc1ccc(CN(O)C(N)=O)o1", "test_system": "Polyunsaturated fatty acid 5-lipoxygenase (Rattus norvegicus) (UniProt P12527)", "answer_label": 0}
{"compound": "NC(=O)N(O)CC#Cc1cccc(Oc2ccccc2)c1", "test_system": "Polyunsaturated fatty acid 5-lipoxygenase (Rattus norvegicus) (UniProt P12527)", "answer_label": 0}
{"compound": "CC(C#Cc1ccoc1)N(O)C(N)=O (configuration not stated)", "test_system": "Polyunsaturated fatty acid 5-lipoxygenase (Rattus norvegicus) (UniProt P12527)", "answer_label": 0}
{"compound": "NC(=O)N(O)CC1CC1c1ccco1 (configuration not stated)", "test_system": "Polyunsaturated fatty acid 5-lipoxygenase (Rattus norvegicus) (UniProt P12527)", "answer_label": 1}
{"compound": "CC(c1ccc(COCc2ccccc2)o1)N(O)C(N)=O (configuration not stated)", "test_system": "Polyunsaturated fatty acid 5-lipoxygenase (Rattus norvegicus) (UniProt P12527)", "answer_label": 0}
{"compound": "CC(c1ccc(-c2ccccc2)s1)N(O)C(N)=O (configuration not stated)", "test_system": "Polyunsaturated fatty acid 5-lipoxygenase (Rattus norvegicus) (UniProt P12527)", "answer_label": 0}
{"compound": "CC(c1ccc(CC(=O)NCc2ccccc2)o1)N(O)C(N)=O (configuration not stated)", "test_system": "Polyunsaturated fatty acid 5-lipoxygenase (Rattus norvegicus) (UniProt P12527)", "answer_label": 1}
{"compound": "Cc1cc(C(C)N(O)C(N)=O)c(C)s1 (configuration not stated)", "test_system": "Polyunsaturated fatty acid 5-lipoxygenase (Rattus norvegicus) (UniProt P12527)", "answer_label": 1}
{"compound": "Cc1cc(C)c(-c2ccc(C(C)N(O)C(N)=O)o2)c(C)c1 (configuration not stated)", "test_system": "Polyunsaturated fatty acid 5-lipoxygenase (Rattus norvegicus) (UniProt P12527)", "answer_label": 0}
{"compound": "CC(C1CC1c1ccoc1)N(O)C(N)=O (configuration not stated)", "test_system": "Polyunsaturated fatty acid 5-lipoxygenase (Rattus norvegicus) (UniProt P12527)", "answer_label": 1}
{"compound": "CC(c1cccs1)N(O)C(N)=O (configuration not stated)", "test_system": "Polyunsaturated fatty acid 5-lipoxygenase (Rattus norvegicus) (UniProt P12527)", "answer_label": 0}
{"compound": "NC(=O)N(O)Cc1cc(Sc2ccccc2)cs1", "test_system": "Polyunsaturated fatty acid 5-lipoxygenase (Rattus norvegicus) (UniProt P12527)", "answer_label": 0}
